TEST DETAILS: growth suppression of PTEN-deleted HCT116, pilot screen, cell-based, HCT116 clonal line, CellTiter-Glo (AID 824);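 also: 0% = 20 µM Hyamine control and 100% = vehicle cell control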
COND: 60 h, at 10 µM, hits give low values
Records with an inconclusive call do not appear.
MEASURED ENDPOINT: viability (%)
Just the number in %, nothing appended.

Some solved cases for reference:
COMPOUND: CCC(=O)NCc1nc2ccccc2n1Cc1ccccc1F
REPORTED VALUE: 99.2
//
COMPOUND: C/C(=C1/SC(N2CCOCC2)=NC1=O)c1ccc(Br)cc1
REPORTED VALUE: 101
//
COMPOUND: Cc1cccc(NC(=O)COc2ccc(Br)cc2C)n1
REPORTED VALUE: 90.5

Q) Requested read-out: viability. Entry: NC(=O)c1cccc(S(=O)(=O)N2CC(c3ccccc3)CC2=O)c1 (stereo unspecified)
A) 96.1

Q) // viability lookup, key: COc1cccc(NC(=O)CN2C(=O)COc3ccc(Cl)cc32)c1
A) 84.7

Q) What value of viability has been recorded for this entry: CCCCOc1ccc(C2(C)CC(=O)NC2=O)cc1 (stereo unspecified)
A) 91.8

Q) Looking for the measured viability of CCOc1ccc(N(CC(=O)NCC(C)C)S(C)(=O)=O)cc1 , can you help?
A) 102

Q) Fill in: viability of Cn1c(C(=O)NCc2ccccn2)cc2c(=O)n(C)c3ccccc3c21 is ___
A) 89.5

Q) Reported viability for O=C(COC(=O)c1cnccn1)c1ccc(Br)cc1 : what is it?
A) 96.7

Q) # query: viability of entry c1ccc(N2CCOCC2)c(Nc2nc3ccccc3n3cnnc23)c1
A) 49.1

Q) Any idea what its viability is? The compound is COCCCNC(=O)Cn1ncc2ccsc2c1=O
A) 101

---

The following molecules are listed with their measured viability increase values.
TEST DETAILS: viability gain of MRP-1-high H69AR cells under doxorubicin, pilot screen, MRP-1 activator project, CellTiter-Glo, duplicate (AID 807);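 also: compound pretreatment 18-22 h then 72 h combined with doxorubicin; 0% = doxorubicin alone and 100% = vehicle without doxorubicin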
COND: H69AR viability with doxorubicin, CellTiter-Glo luminescence; at 10 µM; hits give high values
Record the value in %, omitting the unit from your answer.

MOLECULE: CCOC(=O)N1CCN(c2c(N3CCOCC3)c(=O)c2=O)CC1
viability increase / %: 0.58

Q) Name the reported viability increase value associated with the molecule CCOC(=O)C1CCCCN1Cc1cc(Cl)ccc1O (centres undefined)
A) 0.31

Q) Report viability increase for COc1ccc2c(c1)NC1(O)c3ccccc3C(=O)C21O (centres undefined) please.
A) -1.41

Q) Field request: viability increase | item: CCOC(=O)CCCSc1nc2sc(C)c(C)c2c(=O)[nH]1
A) -0.74

Q) Give the measured viability increase of CN(C)S(=O)(=O)c1ccc(C(=O)Nc2ccc(OCC(=O)N3CCOCC3)cc2)cc1 .
A) -1.5

Q) Consider the molecule COc1ccc(-n2nc(C(=O)N3CCC(C#N)CC3)c3c4ccccc4n(C)c3c2=O)cc1 and give its measured viability increase.
A) -4.6

---

TEST DETAILS: inhibitors of the yeast RAM network, pilot screen, dse1pr::URA3 reporter, 5-FOA selection (AID 869);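 also: 0% = DMSO wells with no growth and 100% = 10 µM 1-NA-PP1 with full growth; RAM network block rescues cells from 5-FOA so hits raise OD615 growth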
COND: S. cerevisiae dse1pr::URA3 5-FOA growth, OD615, 2 d; at 10 µM; hits give high values; strain carries analog-sensitive mutant Cbk1 kinase
MEASURED ENDPOINT: inhibition (%)
A number alone suffices; assume %.

COMPOUND: Cc1cc(N2CCOCC2)cc(C)[n+]1[O-]
MEASUREMENT UNITS: %
inhibition: -0.115

COMPOUND: Cc1nc2ccc(S(=O)(=O)NC(C(=O)NC3CCCC3)C(C)C)cc2s1 (centres undefined)
MEASUREMENT UNITS: %
inhibition: 1.04

COMPOUND: CCC1(C)C2(C#N)C(N)=NC(OC)(OC)C12C#N (centres undefined)
MEASUREMENT UNITS: %
inhibition: 1.41

# evaluate next
Q) Need inhibition, item CCOC(=O)c1cnn2c(C(F)(F)F)cc(-c3ccccc3)nc12
A) 2.29

---

Documented growth inhibition across a set of compounds
TEST DETAILS: Restrictive medium S. cerevisiae growth inhibition, OD615, pilot screen of yeast lifespan reduction project, restrictive growth control (AID 706);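 also: modified DeaD lifespan yeast strain shifted to restrictive glucose medium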
COND: OD615, 48 h, at 10 µM, hits give high values
Calls of active or inactive are those of the source.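 The calls were made as follows: active = growth inhibition above a set limit, 3 SD over mean compound inhibition, in both replicates (cut at about 43% in these data); inconclusive = above the limit in only one replicate; inactive = at or below the limit in both replicates.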

The cases that follow already have their growth inhibition on record.
COMPOUND: CCN(CC)CC(O)COc1ccccc1C(=O)CCc1ccccc1 (stereo not given)
growth inhibition: -14.3% (inactive)
//
COMPOUND: Cc1cc(-c2ccco2)n(CC(=O)NCc2ccco2)n1
growth inhibition: -9.28% (inactive)
//
COMPOUND: Oc1ccccc1-c1nnc(COc2ccccc2)o1
growth inhibition: 14.6% (inactive)
//
COMPOUND: COc1cc(NC(=O)Cc2ccccc2)cc(OC)c1
growth inhibition: -4.67% (inactive)
//
COMPOUND: CCOCC(=O)NCc1ccc2c(c1)cc(C)n2C
growth inhibition: -14% (inactive)
//
COMPOUND: CCC(C)NC(=O)CNC(=O)Cn1c(C)cc2ccccc2c1=O (stereo not given)
growth inhibition: -8.84% (inactive)
//
COMPOUND: CCCCN(C)c1nc(-c2ccco2)c2c(c1C#N)CC(C)(C)OC2
growth inhibition: 0.09% (inactive)
//
COMPOUND: CCOC(=O)C1=C(O)CSC1=Nc1ccc(Cl)cc1
growth inhibition: -10.1% (inactive)

Q) // returns reported growth inhibition for input O=S(=O)(NCCCN1CCN(c2ccccc2F)CC1)c1cccc2cccnc12
A) 6.3% (inactive)

Q) Can you look up the measured growth inhibition of Cc1cc(NC(=O)NC2(C(F)(F)F)Oc3ccc(Cl)cc3O2)no1 (stereo not given) for me?
A) -23% (inactive)

Q) What value of growth inhibition has been reported for the following compound? COCc1cc(C)nc2sc3c(=O)n(Cc4ccco4)nnc3c12
A) -13.3% (inactive)

Q) growth inhibition for Cn1c(-n2c(CCN3C(=O)c4ccccc4C3=O)nc3ccccc3c2=O)nc2ccccc21 ?
A) -2.29% (inactive)

Q) What value of growth inhibition has been recorded for this entry: Cn1c(=O)c2c(nc(CN3CCOCC3)n2CCc2ccccc2)n(C)c1=O
A) -15.8% (inactive)

Q) Which growth inhibition value is on record for CC(=O)NC(O)C(=O)c1ccccc1 (stereo not given) ?
A) 3.38% (inactive)

Q) What does the data say about its growth inhibition? Entry: CCOC(=O)Cn1c(CN2CC(C)OC(C)C2)nc2c1c(=O)n(C)c(=O)n2C (stereo not given)
A) 8.5% (inactive)

---

Known viability of a selection of compounds
TEST DETAILS: growth suppression of beta-catenin knockout HCT116, pilot screen, human colon tumor cells (AID 823);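 also: 0% = wells killed by 20 µM Hyamine and 100% = untreated DMSO cell wells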
COND: CellTiter-Glo, 60 h, at 10 µM, hits give low values
Records with an inconclusive call do not appear.
State just the number; it will be interpreted in %.

Examples with their reported viability follow.
COMPOUND: CN(C)c1ccc(C(=O)Nc2nc3c(s2)CCCC3)cc1
viability (%): 69.7

COMPOUND: O=C1C=C(N(CCO)CCO)C2(CCCCC2)O1
viability (%): 90.1

COMPOUND: Cn1c(=O)c2c(nc(-n3ccnc3)n2Cc2ccc(Cl)cc2Cl)n(C)c1=O
viability (%): 89.2

COMPOUND: CCCOC(=O)C1=C(C)NC2=C(C(=O)C(C(=O)OC)C(C)C2)C1c1ccc(N(CC)CC)cc1 (stereo not given)
viability (%): 65.7

COMPOUND: CCCOc1ccc(C(=O)NCCC(=O)NCCCC(=O)OCC)cc1
viability (%): 91.8

COMPOUND: CC(C)NC(=O)C1(O)c2ccccc2NC(=O)N1c1ccc(Cl)c(Cl)c1 (stereo not given)
viability (%): 89.6

Q) Dear colleague, I am looking for the recorded viability of the following compound: COc1ccccc1N1CCN(C(=O)COc2ccc(C)cc2Br)CC1
A) 83.5

---

viability increase overview
TEST DETAILS: viability gain of MRP-1-high H69AR cells under doxorubicin, pilot screen, MRP-1 activator project, CellTiter-Glo, duplicate (AID 807);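 also: compound pretreatment 18-22 h then 72 h combined with doxorubicin; 0% = doxorubicin alone and 100% = vehicle without doxorubicin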
COND: H69AR viability with doxorubicin, CellTiter-Glo luminescence; at 10 µM; hits give high values
Supply the numeric figure in %, leaving out any unit text.

// solved cases for viability increase follow
COMPOUND: Cc1c(C#N)c2ncn(Cc3ccccc3)c(=O)c2n1-c1ccccc1
viability increase [%]: -3.74
--
COMPOUND: COC(=O)C1=CN(C)C=C(C(=O)OC)C1c1ccc(Cl)cc1Cl
viability increase [%]: -2.14
--
COMPOUND: CC(C)N(Cc1nc(-c2ccccc2)no1)C(=O)COc1ccccc1
viability increase [%]: -3.65
--
COMPOUND: CCOc1ccc(NC(=O)CCS(=O)(=O)c2cccc3nsnc23)cc1
viability increase [%]: -3.08
--
COMPOUND: CCn1c(=O)cc(OCC(=O)Nc2ccccc2C#N)c2ccccc21
viability increase [%]: -1.86
--
COMPOUND: COCCN1Cc2cccc(C(=O)NCc3cccnc3)c2C1=O
viability increase [%]: 0.03
--
COMPOUND: N/C(CC(=O)Nc1cccc(C(F)(F)F)c1)=N/O
viability increase [%]: -1.91
--
COMPOUND: CC(C)Sc1nnc(NC(=O)C2CC2)s1
viability increase [%]: -0.09
--
COMPOUND: CCC(O)CNc1nc(SC)nc2sc3c(c12)CCN(C)C3 (stereo not given)
viability increase [%]: -3.74
--
COMPOUND: Cc1cc(OCC(=O)N(C)C)c2c(-c3ccccc3)cc(=O)oc2c1
viability increase [%]: -3.03

Q) Field request: viability increase | item: CC(C)C12CN3CC(C(C)C)(CN(C1)C3c1ccccc1)C2O (stereo not given)
A) -1.42

Q) So what's the measured viability increase for this one? CC1(C)CC(n2c(NCCO)nc3c(c2=O)C2(CCCC2)Cc2ccccc2-3)CCO1 (stereo not given)
A) -6.73

Q) Item under review: CCCCC(=O)Nc1ncc2c(n1)CC(C)(C)CC2=O . Reported viability increase?
A) -2.35

Q) Need viability increase, item CCOc1ccc(N(CC(=O)N2CC=C(c3ccccc3)CC2)S(=O)(=O)c2c(C)noc2C)cc1
A) -3.95

Q) Which viability increase is listed for Cc1ccc(-c2nn3c(C)nnc3s2)cc1NC(=O)c1ccc(OC(C)C)cc1 ?
A) -4.84
